Origin of measurements: ChEMBL document CHEMBL2163326

Biological target: 5-hydroxytryptamine receptor 1A (Homo sapiens)
Sequence (P08908 whole entry): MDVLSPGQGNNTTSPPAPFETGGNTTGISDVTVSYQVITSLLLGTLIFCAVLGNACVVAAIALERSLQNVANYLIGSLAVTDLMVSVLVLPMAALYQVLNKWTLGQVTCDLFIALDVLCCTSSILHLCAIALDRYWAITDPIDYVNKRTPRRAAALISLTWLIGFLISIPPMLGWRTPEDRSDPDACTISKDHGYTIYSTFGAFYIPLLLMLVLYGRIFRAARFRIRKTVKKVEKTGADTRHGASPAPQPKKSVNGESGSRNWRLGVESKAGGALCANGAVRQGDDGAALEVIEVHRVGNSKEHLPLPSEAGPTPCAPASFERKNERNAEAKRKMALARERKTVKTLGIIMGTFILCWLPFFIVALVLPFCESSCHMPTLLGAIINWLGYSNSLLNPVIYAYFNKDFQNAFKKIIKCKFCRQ
Label key: met means Ki under 100 nM; not met means Ki of 100 nM or more.

>  <sample.smiles>
COc1ccc(-c2ccccc2N2CCNCC2)cc1

>  <class>
not met

$$$$
>  <sample.smiles>
c1ccc(-c2cccc(N3CCNCC3)c2)nc1

>  <class>
met

$$$$
>  <sample.smiles>
c1ccc(-c2cccc(N3CCNCC3)c2)cc1

>  <class>
met

$$$$
>  <sample.smiles>
Cc1ccccc1-c1cccc(N2CCNCC2)c1

>  <class>
met

$$$$
>  <sample.smiles>
COc1cccc(OC)c1-c1cccc(N2CCNCC2)c1

>  <class>
not met

$$$$
>  <sample.smiles>
Fc1ccc(-c2cccc(N3CCNCC3)c2)cc1

>  <class>
met

$$$$

###

Target: 5-hydroxytryptamine receptor 7 (Homo sapiens)
Sequence (P34969 whole entry): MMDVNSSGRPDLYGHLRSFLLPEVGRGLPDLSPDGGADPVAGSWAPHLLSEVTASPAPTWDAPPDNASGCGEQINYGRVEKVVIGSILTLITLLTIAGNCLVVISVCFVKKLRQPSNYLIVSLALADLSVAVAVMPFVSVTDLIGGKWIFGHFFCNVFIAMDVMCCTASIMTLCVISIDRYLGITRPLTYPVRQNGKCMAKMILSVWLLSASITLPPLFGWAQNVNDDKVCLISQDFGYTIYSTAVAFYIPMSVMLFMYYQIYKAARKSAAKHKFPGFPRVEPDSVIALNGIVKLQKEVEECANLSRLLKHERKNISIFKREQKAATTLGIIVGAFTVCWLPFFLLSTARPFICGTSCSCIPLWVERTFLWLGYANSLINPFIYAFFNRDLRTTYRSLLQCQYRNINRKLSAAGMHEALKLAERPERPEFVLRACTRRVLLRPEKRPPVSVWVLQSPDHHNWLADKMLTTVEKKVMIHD
pKi: −log10 of the molar value.
# pKi listing for each entry below
value.type: pKi

>  <sample.smiles>
O=[N+]([O-])c1ccc(-c2ccccc2N2CCNCC2)cc1

>  <lt.gt.eq>
=

>  <experimental.value>
8.15

$$$$
>  <sample.smiles>
c1ccc(-c2ccccc2N2CCNCC2)cc1

>  <lt.gt.eq>
=

>  <experimental.value>
8.85

$$$$
>  <sample.smiles>
Cc1ccccc1-c1ccccc1N1CCNCC1

>  <lt.gt.eq>
=

>  <experimental.value>
8.16

$$$$
>  <sample.smiles>
COc1ccc(-c2ccccc2N2CCNCC2)cc1

>  <lt.gt.eq>
=

>  <experimental.value>
8.59

$$$$
>  <sample.smiles>
COc1ccccc1-c1cccc(N2CCNCC2)c1

>  <lt.gt.eq>
=

>  <experimental.value>
8.09

$$$$
>  <sample.smiles>
Cc1ccccc1-c1cccc(N2CCNCC2)c1

>  <lt.gt.eq>
=

>  <experimental.value>
8.85

$$$$
>  <sample.smiles>
COc1ccccc1-c1ccccc1N1CCNCC1

>  <lt.gt.eq>
=

>  <experimental.value>
7.74

$$$$
>  <sample.smiles>
c1ccc(-c2ccccc2N2CCNCC2)nc1

>  <lt.gt.eq>
=

>  <experimental.value>
7.64

$$$$
>  <sample.smiles>
c1ccc(-c2cccc(N3CCNCC3)c2)nc1

>  <lt.gt.eq>
=

>  <experimental.value>
7.10

$$$$
>  <sample.smiles>
Fc1ccc(-c2ccccc2N2CCNCC2)cc1

>  <lt.gt.eq>
=

>  <experimental.value>
8.57

$$$$
>  <sample.smiles>
Cc1ccc(-c2ccccc2N2CCNCC2)cc1C

>  <lt.gt.eq>
=

>  <experimental.value>
8.72

$$$$
>  <sample.smiles>
Fc1ccc(-c2cccc(N3CCNCC3)c2)cc1

>  <lt.gt.eq>
=

>  <experimental.value>
6.96

$$$$
>  <sample.smiles>
COc1ccc(-c2cccc(N3CCNCC3)c2)cc1

>  <lt.gt.eq>
<

>  <experimental.value>
5.30

$$$$
>  <sample.smiles>
COc1cccc(OC)c1-c1ccccc1N1CCNCC1

>  <lt.gt.eq>
=

>  <experimental.value>
7.02

$$$$
>  <sample.smiles>
COc1cccc(OC)c1-c1cccc(N2CCNCC2)c1

>  <lt.gt.eq>
=

>  <experimental.value>
8.15

$$$$
>  <sample.smiles>
O=[N+]([O-])c1ccc(-c2cccc(N3CCNCC3)c2)cc1

>  <lt.gt.eq>
=

>  <experimental.value>
7.89

$$$$
>  <sample.smiles>
c1ccc(-c2cccc(N3CCNCC3)c2)cc1

>  <lt.gt.eq>
=

>  <experimental.value>
7.60

$$$$
